Target: human complement component C5 (human), P01031
Sequence (P01031 19-673 limits assumed, chain 1 of 2): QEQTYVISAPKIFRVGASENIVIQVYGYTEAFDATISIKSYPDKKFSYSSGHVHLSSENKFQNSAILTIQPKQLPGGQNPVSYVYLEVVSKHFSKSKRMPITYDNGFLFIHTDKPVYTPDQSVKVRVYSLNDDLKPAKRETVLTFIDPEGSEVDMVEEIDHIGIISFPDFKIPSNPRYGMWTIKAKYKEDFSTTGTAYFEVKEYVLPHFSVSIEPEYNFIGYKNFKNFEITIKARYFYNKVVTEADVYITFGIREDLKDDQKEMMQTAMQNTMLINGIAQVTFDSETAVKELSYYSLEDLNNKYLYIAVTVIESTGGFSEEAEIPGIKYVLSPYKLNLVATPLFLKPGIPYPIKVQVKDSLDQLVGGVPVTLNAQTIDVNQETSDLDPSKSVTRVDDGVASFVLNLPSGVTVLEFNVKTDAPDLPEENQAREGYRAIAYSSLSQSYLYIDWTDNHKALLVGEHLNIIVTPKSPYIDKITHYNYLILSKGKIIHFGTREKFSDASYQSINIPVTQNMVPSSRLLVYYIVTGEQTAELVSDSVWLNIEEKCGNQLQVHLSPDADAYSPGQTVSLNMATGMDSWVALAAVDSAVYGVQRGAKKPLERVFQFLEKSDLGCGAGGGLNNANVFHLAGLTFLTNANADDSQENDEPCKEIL
Sequence (P01031 678-1676 limits assumed, chain 2 of 2): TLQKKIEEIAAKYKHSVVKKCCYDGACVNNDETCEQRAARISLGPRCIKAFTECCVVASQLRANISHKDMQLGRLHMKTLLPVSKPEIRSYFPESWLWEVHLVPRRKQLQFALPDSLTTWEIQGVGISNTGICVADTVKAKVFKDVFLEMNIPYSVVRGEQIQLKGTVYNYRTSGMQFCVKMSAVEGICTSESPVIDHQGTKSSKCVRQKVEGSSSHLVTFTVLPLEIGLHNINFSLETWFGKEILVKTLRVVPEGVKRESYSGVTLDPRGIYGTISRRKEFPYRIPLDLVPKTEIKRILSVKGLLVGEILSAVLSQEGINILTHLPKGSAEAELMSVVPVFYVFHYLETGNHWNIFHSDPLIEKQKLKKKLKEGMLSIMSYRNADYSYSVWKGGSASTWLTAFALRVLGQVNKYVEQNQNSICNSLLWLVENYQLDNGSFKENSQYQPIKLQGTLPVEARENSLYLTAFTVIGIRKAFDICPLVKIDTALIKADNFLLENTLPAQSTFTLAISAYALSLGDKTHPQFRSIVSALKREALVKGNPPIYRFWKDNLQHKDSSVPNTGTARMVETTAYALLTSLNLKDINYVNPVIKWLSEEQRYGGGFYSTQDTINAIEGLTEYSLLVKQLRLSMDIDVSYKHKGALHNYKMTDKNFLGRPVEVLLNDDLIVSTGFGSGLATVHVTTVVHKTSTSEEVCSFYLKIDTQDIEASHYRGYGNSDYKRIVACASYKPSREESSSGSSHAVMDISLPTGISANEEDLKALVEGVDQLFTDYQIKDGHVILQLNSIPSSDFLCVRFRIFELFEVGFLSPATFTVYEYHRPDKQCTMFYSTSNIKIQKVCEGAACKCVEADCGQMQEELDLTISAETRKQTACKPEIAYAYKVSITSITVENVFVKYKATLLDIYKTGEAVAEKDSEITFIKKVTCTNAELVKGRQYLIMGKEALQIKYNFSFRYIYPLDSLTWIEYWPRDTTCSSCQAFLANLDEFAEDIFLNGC
Exercise: for every item that follows, state its recorded Kd.
Numbers only, in nM.

- SCPDGFSYRSWDDFCCPMVGRCLAPRNGS (modifications not checked) [K149 knob domain peptide, chemically synthesised, free energy method (Example 4)]: 4.46

Which value of Kd has been reported for SCPDGFSYRSWDDFCCPMVGRCLAPRN (modifications not checked) [K149B knob domain peptide, chemically synthesised, site-directed disulphides] in the records? 246
